Hi there, I'd appreciate the recorded inhibition in vivo at 20 µmol/kg for every entry that follows.
system: Rattus norvegicus; experiment: Anti-inflammatory activity inRattus norvegicus albino (rat) assessed as inhibition of carrageenan-induced paw edema at 20 umol/kg, ip administered 1 hr before challenge measured after 1 hr; type: functional
Give the quantity in %, number only.

So for O=C1N(c2ccccc2)c2ncnc(N3CCCCC3)c2C2C(N3CCCC3)CCCCN12 (stereo not drawn) , the logged inhibition in vivo at 20 µmol/kg turned out to be 10.3

So for O=C1N(c2ccccc2)c2nc[nH]c(=O)c2C2C(N3CCCC3)CCCCN12 (stereo not drawn) , the logged inhibition in vivo at 20 µmol/kg turned out to be 11

So for O=C1N(c2ccccc2)c2nc(CCN3CCCC3)[nH]c(=O)c2C2C(N3CCCC3)CCCCN12 (stereo not drawn) , the logged inhibition in vivo at 20 µmol/kg turned out to be 20.5

So for O=C(O)CSCc1nc2c(c(=O)[nH]1)C1C(N3CCCC3)CCCCN1C(=O)N2c1ccccc1 (stereo not drawn) , the logged inhibition in vivo at 20 µmol/kg turned out to be 66.4

So for O=C1N(c2ccccc2)c2nc(CCN3CCOCC3)[nH]c(=O)c2C2C(N3CCCC3)CCCCN12 (stereo not drawn) , the logged inhibition in vivo at 20 µmol/kg turned out to be 38.8

So for O=C1N(c2ccccc2)c2ncn(CN3CCCCC3)c(=O)c2C2C(N3CCCC3)CCCCN12 (stereo not drawn) , the logged inhibition in vivo at 20 µmol/kg turned out to be 11.9

So for O=C1N(c2ccccc2)c2nc(-c3ccccc3O)[nH]c(=O)c2C2C(N3CCCC3)CCCCN12 (stereo not drawn) , the logged inhibition in vivo at 20 µmol/kg turned out to be 21.9

So for O=C1N(c2ccccc2)c2nc(Cc3ccccc3Nc3c(Cl)cccc3Cl)[nH]c(=O)c2C2C(N3CCCC3)CCCCN12 (stereo not drawn) , the logged inhibition in vivo at 20 µmol/kg turned out to be 29.7

* * *

Hi there, I'd appreciate the recorded inhibition in vivo at 20 µmol/kg for every entry that follows.
system: Rattus norvegicus; test: Anti-inflammatory activity inRattus norvegicus albino (rat) assessed as inhibition of carrageenan-induced paw edema at 20 umol/kg, ip administered 1 hr before challenge measured after 1 hr; assay type: functional
Give the quantity in %, number only.

So for O=C([O-])Cc1ccccc1Nc1c(Cl)cccc1Cl.[Na+] [DICLOFENAC SODIUM] , the logged inhibition in vivo at 20 µmol/kg turned out to be 68.6

So for O=C1N(c2ccccc2)c2nc(CN3CCOCC3)[nH]c(=O)c2C2C(N3CCCC3)CCCCN12 (centres undefined) , the logged inhibition in vivo at 20 µmol/kg turned out to be 51.9

So for O=C1N(c2ccccc2)c2ncnc(N3CCCC3)c2C2C(N3CCCC3)CCCCN12 (centres undefined) , the logged inhibition in vivo at 20 µmol/kg turned out to be 9.5

So for O=C1N(c2ccccc2)c2nc(CN3CCCCC3)[nH]c(=O)c2C2C(N3CCCC3)CCCCN12 (centres undefined) , the logged inhibition in vivo at 20 µmol/kg turned out to be 28

So for O=C1N(c2ccccc2)c2ncn(CN3CCOCC3)c(=O)c2C2C(N3CCCC3)CCCCN12 (centres undefined) , the logged inhibition in vivo at 20 µmol/kg turned out to be 13.1

So for O=C1N(c2ccccc2)c2nc(CN3CCCC3)[nH]c(=O)c2C2C(N3CCCC3)CCCCN12 (centres undefined) , the logged inhibition in vivo at 20 µmol/kg turned out to be 36.2

So for O=C(SCc1nc2c(c(=O)[nH]1)C1C(N3CCCC3)CCCCN1C(=O)N2c1ccccc1)c1ccccc1O (centres undefined) , the logged inhibition in vivo at 20 µmol/kg turned out to be 29.8

So for Nc1ncnc2c1C1C(N3CCCC3)CCCCN1C(=O)N2c1ccccc1 (centres undefined) , the logged inhibition in vivo at 20 µmol/kg turned out to be 17.6

So for O=C1N(c2ccccc2)c2nc(CCN3CCCCC3)[nH]c(=O)c2C2C(N3CCCC3)CCCCN12 (centres undefined) , the logged inhibition in vivo at 20 µmol/kg turned out to be 26.8

* * *

tested on: Rattus norvegicus; assay: Anti-inflammatory activity inRattus norvegicus albino (rat) assessed as inhibition of carrageenan-induced paw edema at 20 umol/kg, ip administered 1 hr before challenge measured after 1 hr; format: functional
# label = True if inhibition in vivo at 20 µmol/kg >= 30% else False

Has N#CC1=C(NC(=O)c2ccccc2O)N(c2ccccc2)C(=O)N2CCCCC(N3CCCC3)C12 (stereo not given) a recorded inhibition in vivo at 20 µmol/kg greater than or equal to 30%?
True

Has O=C(Cc1ccccc1Nc1c(Cl)cccc1Cl)SCc1nc2c(c(=O)[nH]1)C1C(N3CCCC3)CCCCN1C(=O)N2c1ccccc1 (stereo not given) a recorded inhibition in vivo at 20 µmol/kg greater than or equal to 30%?
True

Has O=C1N(c2ccccc2)c2ncn(CN3CCCC3)c(=O)c2C2C(N3CCCC3)CCCCN12 (stereo not given) a recorded inhibition in vivo at 20 µmol/kg greater than or equal to 30%?
False

Has N#CC1=C(NC(=O)Cc2ccccc2Nc2c(Cl)cccc2Cl)N(c2ccccc2)C(=O)N2CCCCC(N3CCCC3)C12 (stereo not given) a recorded inhibition in vivo at 20 µmol/kg greater than or equal to 30%?
True

Has O=C1N(c2ccccc2)c2ncnc(N3CCOCC3)c2C2C(N3CCCC3)CCCCN12 (stereo not given) a recorded inhibition in vivo at 20 µmol/kg greater than or equal to 30%?
False

* * *

test system: Rattus norvegicus; test: Anti-inflammatory activity inRattus norvegicus albino (rat) assessed as inhibition of carrageenan-induced paw edema at 20 umol/kg, ip administered 1 hr before challenge measured after 3 hr; type: functional
# label = true if inhibition in vivo at 20 µmol/kg >= 50% else false

Has O=C(Cc1ccccc1Nc1c(Cl)cccc1Cl)SCc1nc2c(c(=O)[nH]1)C1C(N3CCCC3)CCCCN1C(=O)N2c1ccccc1 (stereo not drawn) a recorded inhibition in vivo at 20 µmol/kg greater than or equal to 50%?
true

Has O=C1N(c2ccccc2)c2nc(CCN3CCCC3)[nH]c(=O)c2C2C(N3CCCC3)CCCCN12 (stereo not drawn) a recorded inhibition in vivo at 20 µmol/kg greater than or equal to 50%?
false

Has O=C1N(c2ccccc2)c2nc(Cc3ccccc3Nc3c(Cl)cccc3Cl)[nH]c(=O)c2C2C(N3CCCC3)CCCCN12 (stereo not drawn) a recorded inhibition in vivo at 20 µmol/kg greater than or equal to 50%?
false

Has O=C1N(c2ccccc2)c2ncnc(N3CCOCC3)c2C2C(N3CCCC3)CCCCN12 (stereo not drawn) a recorded inhibition in vivo at 20 µmol/kg greater than or equal to 50%?
false

Has N#CC1=C(NC(=O)Cc2ccccc2Nc2c(Cl)cccc2Cl)N(c2ccccc2)C(=O)N2CCCCC(N3CCCC3)C12 (stereo not drawn) a recorded inhibition in vivo at 20 µmol/kg greater than or equal to 50%?
true

Has N#CC1=C(NC(=O)c2ccccc2O)N(c2ccccc2)C(=O)N2CCCCC(N3CCCC3)C12 (stereo not drawn) a recorded inhibition in vivo at 20 µmol/kg greater than or equal to 50%?
true

Has O=C1N(c2ccccc2)c2ncnc(N3CCCCC3)c2C2C(N3CCCC3)CCCCN12 (stereo not drawn) a recorded inhibition in vivo at 20 µmol/kg greater than or equal to 50%?
false

* * *

Hi there, I'd appreciate the recorded inhibition in vivo at 20 µmol/kg for every entry that follows.
tested on: Rattus norvegicus; assay: Anti-inflammatory activity inRattus norvegicus albino (rat) assessed as inhibition of carrageenan-induced paw edema at 20 umol/kg, ip administered 1 hr before challenge measured after 3 hr; assay type: functional
Give the quantity in %, number only.

So for O=C1N(c2ccccc2)c2ncn(CN3CCCC3)c(=O)c2C2C(N3CCCC3)CCCCN12 (centres undefined) , the logged inhibition in vivo at 20 µmol/kg turned out to be 32.6

So for O=C(SCc1nc2c(c(=O)[nH]1)C1C(N3CCCC3)CCCCN1C(=O)N2c1ccccc1)c1ccccc1O (centres undefined) , the logged inhibition in vivo at 20 µmol/kg turned out to be 49.7

So for O=C([O-])Cc1ccccc1Nc1c(Cl)cccc1Cl.[Na+] [DICLOFENAC SODIUM] , the logged inhibition in vivo at 20 µmol/kg turned out to be 87.6

So for O=C1N(c2ccccc2)c2nc(CCN3CCOCC3)[nH]c(=O)c2C2C(N3CCCC3)CCCCN12 (centres undefined) , the logged inhibition in vivo at 20 µmol/kg turned out to be 52.5

So for O=C(O)CSCc1nc2c(c(=O)[nH]1)C1C(N3CCCC3)CCCCN1C(=O)N2c1ccccc1 (centres undefined) , the logged inhibition in vivo at 20 µmol/kg turned out to be 85.6

So for O=C1N(c2ccccc2)c2nc(CN3CCCCC3)[nH]c(=O)c2C2C(N3CCCC3)CCCCN12 (centres undefined) , the logged inhibition in vivo at 20 µmol/kg turned out to be 42.4

So for O=C1N(c2ccccc2)c2ncn(CN3CCCCC3)c(=O)c2C2C(N3CCCC3)CCCCN12 (centres undefined) , the logged inhibition in vivo at 20 µmol/kg turned out to be 29.3

So for O=C1N(c2ccccc2)c2nc(CCN3CCCCC3)[nH]c(=O)c2C2C(N3CCCC3)CCCCN12 (centres undefined) , the logged inhibition in vivo at 20 µmol/kg turned out to be 41.4

So for Nc1ncnc2c1C1C(N3CCCC3)CCCCN1C(=O)N2c1ccccc1 (centres undefined) , the logged inhibition in vivo at 20 µmol/kg turned out to be 33.7

So for O=C1N(c2ccccc2)c2ncn(CN3CCOCC3)c(=O)c2C2C(N3CCCC3)CCCCN12 (centres undefined) , the logged inhibition in vivo at 20 µmol/kg turned out to be 30.1

So for O=C1N(c2ccccc2)c2nc[nH]c(=O)c2C2C(N3CCCC3)CCCCN12 (centres undefined) , the logged inhibition in vivo at 20 µmol/kg turned out to be 33.1

So for O=C1N(c2ccccc2)c2ncnc(N3CCCC3)c2C2C(N3CCCC3)CCCCN12 (centres undefined) , the logged inhibition in vivo at 20 µmol/kg turned out to be 27.3

So for O=C1N(c2ccccc2)c2nc(-c3ccccc3O)[nH]c(=O)c2C2C(N3CCCC3)CCCCN12 (centres undefined) , the logged inhibition in vivo at 20 µmol/kg turned out to be 37.2

So for O=C1N(c2ccccc2)c2nc(CN3CCOCC3)[nH]c(=O)c2C2C(N3CCCC3)CCCCN12 (centres undefined) , the logged inhibition in vivo at 20 µmol/kg turned out to be 62.4

src = ChEMBL document CHEMBL3045768
